Item-by-item account of EC50 group, cGMP in GTM-3 cells
tgt: T1, natriuretic peptide receptor-B (human)
T1 chain: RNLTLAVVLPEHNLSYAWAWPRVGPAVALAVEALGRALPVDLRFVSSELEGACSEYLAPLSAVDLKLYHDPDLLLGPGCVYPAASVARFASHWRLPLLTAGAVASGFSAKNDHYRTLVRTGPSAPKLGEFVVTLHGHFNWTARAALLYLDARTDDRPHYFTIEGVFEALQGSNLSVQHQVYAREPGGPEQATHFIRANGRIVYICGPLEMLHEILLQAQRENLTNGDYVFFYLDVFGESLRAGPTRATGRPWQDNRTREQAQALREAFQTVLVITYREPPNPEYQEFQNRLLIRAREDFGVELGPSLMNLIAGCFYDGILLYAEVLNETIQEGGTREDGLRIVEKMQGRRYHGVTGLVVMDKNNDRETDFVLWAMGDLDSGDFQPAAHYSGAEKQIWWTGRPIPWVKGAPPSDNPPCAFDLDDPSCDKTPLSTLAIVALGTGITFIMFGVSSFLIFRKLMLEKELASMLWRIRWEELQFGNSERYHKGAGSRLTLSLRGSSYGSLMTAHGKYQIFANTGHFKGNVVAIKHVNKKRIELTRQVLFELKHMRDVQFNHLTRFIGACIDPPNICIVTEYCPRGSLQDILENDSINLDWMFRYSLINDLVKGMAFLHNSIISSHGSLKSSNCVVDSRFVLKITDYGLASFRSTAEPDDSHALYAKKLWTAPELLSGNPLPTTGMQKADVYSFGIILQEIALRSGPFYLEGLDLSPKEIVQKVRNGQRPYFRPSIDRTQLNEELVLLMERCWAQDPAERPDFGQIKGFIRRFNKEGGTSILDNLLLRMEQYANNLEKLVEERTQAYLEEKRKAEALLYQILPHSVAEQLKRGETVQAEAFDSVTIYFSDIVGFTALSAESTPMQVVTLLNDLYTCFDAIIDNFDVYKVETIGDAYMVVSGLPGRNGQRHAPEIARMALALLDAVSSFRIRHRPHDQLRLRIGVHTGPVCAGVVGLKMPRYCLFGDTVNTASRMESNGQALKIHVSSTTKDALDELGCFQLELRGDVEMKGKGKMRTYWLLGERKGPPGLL
test: cell-based or functional assay
Numbered stars: 1 amine (or outer) side, 2 acyl side, 3 side chain; on linkers, the order of the positions; unused ones are H or OH. Square brackets hold non-standard residues; d marks the D form. Ends that are not written are not given here. * marks the point of attachment. Pro(trans-4-NH2) = O=C([C@@H]1C[C@@H](N[*:3])CN1[*:1])[*:2]; 6057 = 3-Octylsulfanyl-propionic acid, CCCCCCCCSCCC(=O)*; Sni = (S)-nipecotic acid, O=C([C@H]1CCCN([*:1])C1)[*:2]; Hyp = O=C(O)[C@@H]1C[C@@H](O)CN1; NMeL = CN[C@@H](CC(C)C)C(=O)O; BB394 = not defined here; Octanoyl = CCCCCCCC(=O)*; 2797 = not defined here; Api = NC1(C(=O)O)CCNCC1; Che = not defined here; Hexanoyl = CCCCCC(=O)*; Nbt = 4-butyl-thiazole; NP = not defined here; Occ = octanoic acid
value type: EC50 group, cGMP in GTM-3 cells

binder: [Occ][Sni]FLL[Hyp][NMeL]D[BB394][Che] (not fully specified (residue 4); printed as Occ-Sni-Phe-leu-Leu-Hyp-Nml-Asp-(BB394)-Che; reading uncertain) [JAL-1694]
assay result: ≤ 15 µM

binder: Octanoyl-[dA][dA]FGLKLDR[2797] (reading uncertain; also: printed as Occ-ala-ala-Phe-Gly-Leu-Lys-Leu-Asp-Arg-2797) [JAL-0754]
assay result: ≤ 5 µM

binder: Nbt-[dA]F[dR]L[Hyp][NMeL]DRI-NH2 [JAL-1346]
assay result: ≤ 15 µM

binder: Octanoyl-AFLL[Hyp][NMeL]D[Hyp]I-NH2 (also: lower-case ala, leu: meaning not given here) [JAL-1441]
assay result: ≤ 15 µM

binder: [Occ][Sni]FGLPLDRI-NH2 [JAL-0837]
assay result: ≤ 15 µM

binder: Hexanoyl-G[dP]FGLKLDRI-NH2 [JAL-0636]
assay result: ≤ 15 µM

binder: [Occ][Sni]F[dL]L[Hyp][NMeL][NP][Che] (reading uncertain; also: printed as Occ-Sni-Phe-leu-Leu-Hyp-Nml-NP-Che) [JAL-1673]
assay result: ≤ 15 µM

binder: [Nbt][Sni]F[dR]L[Hyp][NMeL]DRI-NH2 [JAL-1344]
assay result: ≤ 5 µM

binder: 6057-FRL[Hyp][NMeL]DRI-NH2 (not fully specified (some residues); printed as 6057-Phe-arg-Leu-Hyp-Nml-Asp-Arg-Ile-NH2) [JAL-1241]
assay result: ≤ 5 µM

binder: Octanoyl-[dA]F[Api]L[Pro(trans-4-NH2)][NMeL]DPI-NH2 [JAL-1452]
assay result: ≤ 1 µM
